System: Wolbachia pipientis
Assay: Anti-Wolbachia Cell-Based Screen
Type: functional
Parameters: scale not given: in the data most compounds retested in dose-response had high values
Conditions: 5 µM
Among all 48,000 compounds or so, about 13,000 (27%) showed an effect of 50% or more. The list shows a part of the results.
readout type: Percent Effect (%)
Please give a number only; it is taken to be in %.

Would you please look over these solved cases?
compound	readout type	measured number
CC(=O)Nc1ccc(Cl)c(C(=O)N(C)Cc2nc(C)c[nH]2)c1	Percent Effect	-7.642
Cc1nc(CNCC(O)COc2ccc3c(c2)OCO3)cs1 (stereo unspecified)	Percent Effect	-10.52
CCN1CCOCC2(CCCN(C(=O)c3ccccc3F)C2)C1.O=C(O)C(F)(F)F (stereo unspecified)	Percent Effect	106.1
COc1c(CNCC(O)c2cccc(F)c2)c(C)nn1C (stereo unspecified)	Percent Effect	102.4
Cc1nn(C)c(Cl)c1CNCCOc1ccc2c(c1)OCO2	Percent Effect	-10.2
O=C(c1ccnc(-n2cnnc2)c1)N1CCCC2(CCOC2)C1 (stereo unspecified)	Percent Effect	13.33

Prompt line: Kindly state the measured Percent Effect obtained for CCC1CN(CCCO)c2ccccc2O1 (stereo unspecified) with Wolbachia pipientis.
Response line: 49.62

Prompt line: Next: COCC(O)CNC(=O)c1coc(COc2ccc3sc(C)nc3c2)n1 (stereo unspecified)
Response line: -2.868

Prompt line: Next: CCN1CCOCC2(CCCN(C(=O)c3cnccn3)C2)C1 (stereo unspecified)
Response line: 95.08

Prompt line: Next: O=C(O)C(F)(F)F.O=C(c1cnccn1)N1CCCC2(COCCN(CC3CC3)C2)C1 (stereo unspecified)
Response line: -6.241

Prompt line: Next: CC(C)CN1CCCC2(CCN(C(=O)c3cnccn3)C2)C1 (stereo unspecified)
Response line: -16.61

====

# maps each entry to its Percent Effect
System: Wolbachia pipientis
Test: Anti-Wolbachia Cell-Based Screen
Assay type: functional
Design: scale not given: in the data most compounds retested in dose-response had high values
Settings: 5 µM
Screen size: about 48,000 compounds; about 13,000 (27%) showed an effect of 50% or more. The list shows a part of the results.
Please give a number only; it is taken to be in %.

compound	unit tag	measured number
CC(C)O[C@@H]1CC[C@H]2[C@H]1OCCN2C(=O)c1nn(C)c2ccccc12	%	112.4
CC1=NN(c2ccc(C(=O)OCCNC(=O)c3ccncc3)cc2)CC1	%	6.071
COCc1noc(C2(c3ccc(Br)cc3)CCOCC2)n1	%	-15.05
CC(C)NC(=O)CN(C)C(=O)c1c(Br)c2ccccc2n1C	%	-8.15
Nc1nc2c(c(NC(=O)Nc3ccc(Cl)c(Cl)c3)n1)CCCC2	%	4.347

Prompt line: Reported Percent Effect for NC(CC1CCCC1)c1ccc(Oc2ccccc2)cc1 (stereo unspecified) : what is it?
Response line: -4.539

====

Tested on: Wolbachia pipientis
Test: Anti-Wolbachia Cell-Based Screen
Assay type: functional
Parameters: scale not given: in the data most compounds retested in dose-response had high values
Details: 5 µM
About 13,000 (27%) of roughly 48,000 compounds showed an effect of 50% or more. This is one part of the list.
# maps each entry to its Percent Effect
Please give a number only; it is taken to be in %.

Would you please look over these solved cases?
molecule	measured on	measured number
Cc1nsc(NC(=O)NC2(CN3CCOCC3)CCCC2)n1	Wolbachia pipientis	-3.665
O=C(c1ccc(C2CCCO2)s1)N1CCS(=O)(=O)CC1 (configuration not stated)	Wolbachia pipientis	-17.24
O=C(NCc1nc(-c2ncccn2)no1)c1ccc(C2CCCO2)s1 (configuration not stated)	Wolbachia pipientis	1.896
O=C(NCc1nnc2n1CCCC2)c1ccc(C2CCCO2)s1 (configuration not stated)	Wolbachia pipientis	101.2
O=C(NCc1nnnn1-c1ccccc1)c1ccc(C2CCCO2)s1 (configuration not stated)	Wolbachia pipientis	107.3
O=C(NCc1nnc2n1CCC2)c1ccc(C2CCCO2)s1 (configuration not stated)	Wolbachia pipientis	92.93
Cc1csc(NC(=O)C2(C)CCCO2)n1 (configuration not stated)	Wolbachia pipientis	-5.614
O=C(NCCc1nc(-c2cccnc2)no1)c1ccc(C2CCCO2)s1 (configuration not stated)	Wolbachia pipientis	9.289
O=C(NCc1nnc2n1CCC2)c1ccc(Br)s1	Wolbachia pipientis	111.9
O=C(c1ccc(C2CCCO2)s1)N1CCOCC1 (configuration not stated)	Wolbachia pipientis	12.38

Prompt line: Reported Percent Effect for CN1CCOC(C(=O)Nc2ccc3c(c2)nc(C(C)(C)C)n3C)C1 (configuration not stated) : what is it?
Response line: 1.099

Prompt line: Next: CN1CCC(NC(=O)Cc2csc(C(C)(C)C)n2)CC1
Response line: -5.316
